# tested-on: UniProtKB P20595
# Sequence (P20595 1-619): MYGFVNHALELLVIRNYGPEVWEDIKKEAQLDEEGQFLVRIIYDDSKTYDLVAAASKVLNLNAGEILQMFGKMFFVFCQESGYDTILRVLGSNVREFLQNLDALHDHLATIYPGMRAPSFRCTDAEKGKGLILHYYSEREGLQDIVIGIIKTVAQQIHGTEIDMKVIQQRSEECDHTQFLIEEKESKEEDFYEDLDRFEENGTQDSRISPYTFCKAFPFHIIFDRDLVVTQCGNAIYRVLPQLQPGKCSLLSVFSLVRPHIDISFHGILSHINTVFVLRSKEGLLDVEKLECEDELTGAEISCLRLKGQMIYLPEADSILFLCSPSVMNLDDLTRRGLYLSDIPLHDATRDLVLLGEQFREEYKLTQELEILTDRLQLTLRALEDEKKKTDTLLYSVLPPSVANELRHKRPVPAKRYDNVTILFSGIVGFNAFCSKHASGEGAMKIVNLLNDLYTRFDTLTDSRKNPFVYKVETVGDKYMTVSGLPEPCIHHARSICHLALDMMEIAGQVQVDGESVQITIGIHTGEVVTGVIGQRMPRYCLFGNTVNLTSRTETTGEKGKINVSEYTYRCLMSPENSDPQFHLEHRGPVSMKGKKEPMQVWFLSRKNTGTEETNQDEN
# Sequence (P19686 1-690 partner): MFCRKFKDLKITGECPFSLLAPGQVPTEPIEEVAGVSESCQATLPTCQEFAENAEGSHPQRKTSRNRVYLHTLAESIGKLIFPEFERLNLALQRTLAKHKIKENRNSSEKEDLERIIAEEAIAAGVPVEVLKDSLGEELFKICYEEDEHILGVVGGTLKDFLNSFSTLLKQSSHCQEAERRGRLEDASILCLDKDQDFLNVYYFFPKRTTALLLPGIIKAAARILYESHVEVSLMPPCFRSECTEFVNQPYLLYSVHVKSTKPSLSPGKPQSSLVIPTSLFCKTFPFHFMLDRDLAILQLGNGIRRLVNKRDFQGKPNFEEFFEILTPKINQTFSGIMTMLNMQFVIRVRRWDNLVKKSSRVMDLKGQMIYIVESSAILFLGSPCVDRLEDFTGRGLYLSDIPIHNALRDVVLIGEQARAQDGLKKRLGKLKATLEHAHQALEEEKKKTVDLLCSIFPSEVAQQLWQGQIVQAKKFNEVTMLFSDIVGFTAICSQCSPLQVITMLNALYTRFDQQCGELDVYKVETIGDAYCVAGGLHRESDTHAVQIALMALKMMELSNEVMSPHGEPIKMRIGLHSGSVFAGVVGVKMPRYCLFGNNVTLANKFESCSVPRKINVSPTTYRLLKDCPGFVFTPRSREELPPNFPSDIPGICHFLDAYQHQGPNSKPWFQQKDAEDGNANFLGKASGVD
# method-notes: Activating action at the sGC enzyme in vitro (PPi detection, luciferase)
# assay-setup: read-out: EC50 (concentration at 50% of maximum efficacy), activating action at the sGC enzyme
measurement-type: EC50 (µM)

# count of solved cases: 5
molecule: Cc1c(CCC(=O)O)cccc1NC(=O)C(c1ccc(CN2N=C(c3ccccc3)OCC2=O)cc1)C1CCCC1 (single isomer, unassigned)
units-label: µM
EC50: 0.04
//
molecule: O=C(Nc1ccc(F)c(CC2(C(=O)O)CC2)c1)C(c1ccc(CN2N=C(c3ccccc3)OCC2=O)cc1)C1CCCC1 (stereo not drawn)
units-label: µM
EC50: 0.22
//
molecule: C[C@H]([C@H](C(=O)Nc1cccc(CC2(C(=O)O)CC2)c1)c1ccc(CN2Cc3ccccc3C2=O)cc1)C(F)(F)F
units-label: µM
EC50: 0.011
//
molecule: CCC(C)C(C(=O)Nc1cccc(CCC(=O)O)c1C)c1ccc(CN2N=C(c3ccccc3)OCC2=O)cc1 (single isomer, unassigned)
units-label: µM
EC50: 0.024
//
molecule: O=C(O)CCc1ccc(F)c(NC(=O)[C@H](c2ccc(CN3N=C(c4ccccc4)OCC3=O)cc2)C2CCCC2)c1
units-label: µM
EC50: 0.02

[I] CCC(C)C(C(=O)Nc1cccc2c1CC(C)(C(=O)O)C2)c1ccc(CN2N=C(c3ccccc3)OCC2=O)cc1 (single isomer, unassigned)
[II] C[C@H]([C@H](C(=O)Nc1cccc(CC2(C(=O)O)CC2)c1)c1ccc(CN2Cc3c(F)cccc3C2=O)cc1)C(F)(F)F
Choose between I and II : whose measured EC50 value is numerically larger? Let me know the label of the one you choose.
I
(I: 0.073 µM, II: 0.0036 µM)

----------
# tested-on: recombinant guanylate cyclase reporter cell line (Rattus norvegicus)
# Construct: expressed in transfected cells; host or cells: CHO reporter cell line
# method-notes: sGC-activating activity in the CHO reporter cell in vitro
# Type: cell-based
measurement-type: MEC (minimum effective concentration), sGC-activating activity in the CHO reporter cell (nM)

# count of solved cases: 2
molecule: CC(C(C(=O)Nc1cccc(CC2(C(=O)O)CC2)c1)c1ccc(Cn2nc(C(F)(F)F)ccc2=O)cc1)C(F)(F)F (single isomer, unassigned)
tested-on: recombinant guanylate cyclase reporter cell line (Rattus norvegicus)
measured-number: 0.7
--
molecule: Cc1c(CCC(=O)O)cccc1NC(=O)C(c1ccc(CN2N=C(c3ccccc3)OCC2=O)cc1)C1CCCC1 (single isomer, unassigned)
tested-on: recombinant guanylate cyclase reporter cell line (Rattus norvegicus)
measured-number: 3

[I] O=C(Nc1cccc(CC2(C(=O)O)CC2)c1)[C@H](c1ccc(CN2N=C(c3ccccc3)OCC2=O)cc1)C1CCCC1
[II] CC(C(C(=O)Nc1cccc(CCC(=O)O)c1)c1ccc(CN2N=C(c3ccccc3)OCC2=O)cc1)C(F)(F)F (single isomer, unassigned)
[III] CC(C(C(=O)Nc1cc(CC2(C(=O)O)CC2)ccc1F)c1ccc(CN2N=C(c3ccccc3)OCC2=O)cc1)C(F)(F)F (stereo not drawn)
[IV] Cc1ccc(=O)n(Cc2ccc(C(C(=O)Nc3cccc(CC4(C(=O)O)CC4)c3)C3CCCC3)cc2)n1 (stereo not drawn)
Falling order of MEC (minimum effective concentration), sGC-activating activity in the CHO reporter cell, please. # list labels per requested ordering
IV, II, I, III

----------
# tested-on: recombinant guanylate cyclase reporter cell line (Rattus norvegicus)
# Construct: expressed in transfected cells; host or cells: CHO reporter cell line
# method-notes: sGC-activating activity in the CHO reporter cell in vitro
# Assay type: cell-based
measurement-type: MEC (minimum effective concentration), sGC-activating activity in the CHO reporter cell (nM)

[I] O=C(Nc1cccc(CC2(C(=O)O)CC2)c1)C(c1ccc(Cn2ccc(C(F)(F)F)cc2=O)cc1)C1CCCC1 (stereo not drawn)
[II] O=C(Nc1cc(F)cc(CC2(C(=O)O)CC2)c1)C(c1ccc(CN2N=C(c3ccccc3)OCC2=O)cc1)C1CCCC1 (single isomer, unassigned)
Given I and given II , which shows the smaller recorded MEC (minimum effective concentration), sGC-activating activity in the CHO reporter cell? Let me know the label of the one you choose.
II
(II: 1 nM, I: 30 nM)

----------
# tested-on: soluble guanylate cyclase (sGC) (Rattus norvegicus, UniProt P20595)
# Construct: made in house; host or cells: baculovirus/Sf9 insect cells
# method-notes: Activating action at the sGC enzyme in vitro (PPi detection, luciferase)
# Assay type: biochemical
measurement-type: MEC (minimum effective concentration), activating action at the sGC enzyme (nM)

compound: O=C(Nc1cccc(CC2(C(=O)O)CC2)c1)[C@H](c1ccc(CN2N=C(c3ccccc3)OCC2=O)cc1)C1CCCC1
measured-number: 0.5
--
compound: C[C@H]([C@H](C(=O)Nc1cccc(CC2(C(=O)O)CC2)c1)c1ccc(CN2Cc3c(F)cccc3C2=O)cc1)C(F)(F)F
measured-number: 0.2
--
compound: C[C@@H]([C@@H](C(=O)Nc1cccc(CC2(C(=O)O)CC2)c1)c1ccc(CN2Cc3c(F)cccc3C2=O)cc1)C(F)(F)F
measured-number: 2

[1] Cc1c(CCC(=O)O)cccc1NC(=O)C(c1ccc(CN2N=C(c3ccccc3)OCC2=O)cc1)C1CCCC1 (single isomer, unassigned)
[2] O=C(O)CCc1cccc(NC(=O)C(c2ccc(CN3N=C(c4ccccc4)OCC3=O)cc2)C2CCCC2)c1 (single isomer, unassigned)
[3] O=C(Nc1cccc(CC2(C(=O)O)CC2)c1)C(c1ccc(Cn2nc(-c3ccccc3)ccc2=O)cc1)C1CCCC1 (stereo not shown)
[4] CC(CC(F)(F)F)C(C(=O)Nc1cccc(CC2(C(=O)O)CC2)c1)c1ccc(CN2N=C(c3ccccc3)OCC2=O)cc1 (single isomer, unassigned)
List the 4 entries from lowest MEC (minimum effective concentration), activating action at the sGC enzyme to highest MEC (minimum effective concentration), activating action at the sGC enzyme value. # list labels per requested ordering
3, 1, 4, 2
(3: 0.2 nM, 1: 1.6 nM, 4: 3.4 nM, 2: 20 nM)

----------
# tested-on: recombinant guanylate cyclase reporter cell line (Rattus norvegicus, UniProt P20595)
# Construct: expressed in transfected cells; host or cells: CHO reporter cell line
# method-notes: sGC-activating activity in the CHO reporter cell in vitro
# Format: cell-based
measurement-type: MEC (minimum effective concentration), sGC-activating activity in the CHO reporter cell (nM)

[A] O=C(O)CCc1ccc(F)c(NC(=O)[C@H](c2ccc(CN3N=C(c4ccccc4)OCC3=O)cc2)C2CCCC2)c1
[B] O=C(Nc1cc(CC2(C(=O)O)CC2)ccc1F)C(c1ccc(CN2N=C(c3ccccc3)OCC2=O)cc1)C1CCCC1 (stereo not drawn)
[C] CC1(C(=O)O)Cc2cccc(NC(=O)C(c3ccc(CN4N=C(c5ccccc5)OCC4=O)cc3)C3CCCC3)c2C1 (single isomer, unassigned)
Ranking field: MEC (minimum effective concentration), sGC-activating activity in the CHO reporter cell; order: falling. # list labels per requested ordering
C, A, B
